For each entry below, report its growth inhibition value.
assay: NCI Yeast Anticancer Drug Screen. Data for the mlh1 rad18 strain (AID 175); conditions: S. cerevisiae mlh1 rad18 strain growth inhibition; at 50.0 µM; hits give high values
This is part of a sample that, as a whole, favours compounds with a hit. Of some 79,000 tested, about 15% had one in any assay.
Output spec: scalar in %, unitless text.

Incoming: For the molecule O=C(Nc1nc2ccsc2s1)c1ccccc1 , give its measured growth inhibition value.
Outgoing: -10.8

Incoming: For the molecule Nc1cc(S(=O)(=O)O)cc2ccc(S(=O)(=O)O)cc12 , give its measured growth inhibition value.
Outgoing: 3.95

Incoming: For the molecule C=C(C)C(CCC)(C(=O)OCC)C(=O)OCC , give its measured growth inhibition value.
Outgoing: -14.1

Incoming: For the molecule Cc1cccc(C2=C/C(=C(\SS/C(C(=O)c3ccc(OCC(=O)O)c(Cl)c3Cl)=C3\C=C(c4cccc(C)c4)SS3)C(=O)c3ccc(OCC(=O)O)c(Cl)c3Cl)SS2)c1 , give its measured growth inhibition value.
Outgoing: -10.7

Incoming: For the molecule Nc1ccc(C(=O)NN2C(=O)C(Cl)C2c2ccccc2)cc1 (stereo unspecified) , give its measured growth inhibition value.
Outgoing: -38.2

Incoming: For the molecule Nc1nc(SCC(=O)O)[nH]c(=O)c1NS(=O)(=O)c1ccccc1[N+](=O)[O-] , give its measured growth inhibition value.
Outgoing: 5.6

* * *

For each entry below, report its growth inhibition value.
test: NCI Yeast Anticancer Drug Screen. Data for the bub3 strain (AID 167); settings: S. cerevisiae bub3 mutant strain, at 50.0 µM, hits give high values
This is part of a sample that, as a whole, favours compounds with a hit. Of some 79,000 tested, about 15% had one in any assay.
Output spec: scalar in %, unitless text.

Incoming: For the compound O=C1C(O)=C(Cl)C(=O)C(OC2=C(Cl)C(=O)C(OC3=C(Cl)C(=O)C(OC4=C(Cl)C(=O)C(Cl)=C(Cl)C4=O)=C(Cl)C3=O)=C(Cl)C2=O)=C1Cl , give its measured growth inhibition value.
Outgoing: -2.35

Incoming: For the compound CC(=S)N=Cc1c(N)[nH]n(-c2ccccc2)c1=O , give its measured growth inhibition value.
Outgoing: -20.1

Incoming: For the compound O=C(/C=N/O)Nc1ccccc1I , give its measured growth inhibition value.
Outgoing: 18.1

Incoming: For the compound CCC1C(=O)OCc2c1cc1n(c2=O)CCC12OCCO2 (configuration not stated) , give its measured growth inhibition value.
Outgoing: -23.8

Incoming: For the compound CCC(CC)OCc1ccccc1 , give its measured growth inhibition value.
Outgoing: 0.55

Incoming: For the compound CC(C)C1NC(C(=O)O)C(C)(C)S1 (configuration not stated) , give its measured growth inhibition value.
Outgoing: 0.35

Incoming: For the compound O=C(Nc1nc2ccsc2s1)c1ccccc1 , give its measured growth inhibition value.
Outgoing: -8

Incoming: For the compound CC(=O)OCC1OC(N2C(c3ccccc3)=CC(c3ccco3)C(C#N)=C2S)C(OC(C)=O)C(OC(C)=O)C1OC(C)=O (configuration not stated) , give its measured growth inhibition value.
Outgoing: 2.05

Incoming: For the compound N#C/C=C\c1ccc(F)cc1 , give its measured growth inhibition value.
Outgoing: 10.8

Incoming: For the compound CC1=CC(=O)c2ccc(F)cc2C1=O , give its measured growth inhibition value.
Outgoing: -7.95

Incoming: For the compound COc1cc(C2C3=C(COC3=O)Oc3cc4c(cc32)OCO4)ccc1OC(C)=O (configuration not stated) , give its measured growth inhibition value.
Outgoing: -4.35

Incoming: For the compound COc1c(NC(=O)c2ccc(C(=O)Nc3cccc([N+](=O)[O-])c3OC)cc2)cccc1[N+](=O)[O-] , give its measured growth inhibition value.
Outgoing: -2.2

* * *

For each entry below, report its growth inhibition value.
Experiment: NCI Yeast Anticancer Drug Screen. Data for the sgs1 mgt1 strain (AID 161);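 note: 0% = growth of cultures given vehicle only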
Details: S. cerevisiae sgs1 mgt1 strain, at 50.0 µM, hits give high values
Description: Growth inhibition of yeast strains with defined genetic alterations is measured as a screen for potential anti-cancer activity. Selected strains with alterations in DNA damage repair or cell cycle control were exposed to compounds and growth inhibition was measured relative to vehicle treated controls. The strain used in this assay is sgs1 mgt1
Compounds without any hit were thinned out: in the full panel of roughly 79,000, 15% have a hit.
Output spec: scalar in %, unitless text.

Incoming: For the compound CCN1CCCC(Cl)C1 (stereo not drawn) , give its measured growth inhibition value.
Outgoing: 14.7

Incoming: For the compound NC(=O)N/N=C(/CC1C(=O)Oc2ccccc21)c1ccccc1O (stereo not drawn) , give its measured growth inhibition value.
Outgoing: -9.7

Incoming: For the compound Cc1cccc(C(=O)OC(=O)c2cccc(C)c2)c1 , give its measured growth inhibition value.
Outgoing: -9.75

Incoming: For the compound c1cc2c3c(c1)ccc1cccc(c13)CC2 , give its measured growth inhibition value.
Outgoing: 3.3

Incoming: For the compound CC(O)C1C(C(=O)O)C2C(C)OC(=O)C12 (stereo not drawn) , give its measured growth inhibition value.
Outgoing: -0.8

Incoming: For the compound CC1(C)[C@@H]2C[C@H]1C(Cc1ccccc1C[C@H]1c3cc(-c4ccccn4)ncc3[C@H]3C[C@@H]1C3(C)C)c1cc(-c3ccccn3)ncc12 (stereo partly drawn) , give its measured growth inhibition value.
Outgoing: 10.4

Incoming: For the compound O=[N+]([O-])c1ccc(NC(CO)C(O)C(O)C(O)CO)c([N+](=O)[O-])c1 (stereo not drawn) , give its measured growth inhibition value.
Outgoing: -0.85

Incoming: For the compound CCCCCCCC(=O)OCC(=O)c1ccc(-c2ccccc2)cc1 , give its measured growth inhibition value.
Outgoing: 2.85

Incoming: For the compound COc1ccccc1/C=C/C(=O)N1CCC2(CC1)C(=O)N(C)CN2c1ccccc1 , give its measured growth inhibition value.
Outgoing: -17.3

Incoming: For the compound O=C(CCC(=O)Nc1cccc(Cl)c1)CC(=O)c1ccc(F)cc1 , give its measured growth inhibition value.
Outgoing: 6.3

Incoming: For the compound COc1cc(C2c3cc4c(cc3OC(C)(OC)C2C(C)=O)OCO4)cc(OC)c1O (stereo not drawn) , give its measured growth inhibition value.
Outgoing: -24.6

Incoming: For the compound CCOC(=O)C1=C(C)c2ccccc2OC1C(=O)O (stereo not drawn) , give its measured growth inhibition value.
Outgoing: 16.8

Incoming: For the compound C/C=C\COC(=O)CC(C)=O , give its measured growth inhibition value.
Outgoing: -4.3

Incoming: For the compound Cc1cccc(C)c1NC(=O)C(=O)CC(=O)CO , give its measured growth inhibition value.
Outgoing: 14.1

Incoming: For the compound COC(=O)C1C(=C(c2ccccc2)c2ccccc2)C1c1ccccc1 (stereo not drawn) , give its measured growth inhibition value.
Outgoing: -11.8

Incoming: For the compound O=c1c2ccccc2c(=O)n2n1C1CCC2C1 , give its measured growth inhibition value.
Outgoing: -7.9

Incoming: For the compound O=[N+]([O-])c1ccc2c(c1)Sc1ccccc1N2 , give its measured growth inhibition value.
Outgoing: -26.7

Incoming: For the compound O=c1[nH]c2ccccc2c(O)c1O , give its measured growth inhibition value.
Outgoing: 22.9

Incoming: For the compound Nc1ccc(C(=O)NN2C(=O)C(Cl)C2c2ccccc2)cc1 (stereo not drawn) , give its measured growth inhibition value.
Outgoing: -62.5

Incoming: For the compound CCCCC(c1nc2c(c3c1CCCC3)CCCC2)C(O)(C(F)(F)F)C(F)(F)F (stereo not drawn) , give its measured growth inhibition value.
Outgoing: 10.2

Incoming: For the compound Cc1c(COC(=O)NC(C)C)c(COC(=O)NC(C)C)c2n1CS(=O)(=O)C2 , give its measured growth inhibition value.
Outgoing: -3.2

Incoming: For the compound CCNCC(=O)Nc1ccc2c(c1)C(=O)c1ccc(NC(=O)CNCC)cc1C2=O , give its measured growth inhibition value.
Outgoing: 29.2

Incoming: For the compound Cc1noc(NS(=O)(=O)c2ccc(NC(=S)/N=C/C(C(=O)c3ccccc3)=C(\O)c3ccccc3)cc2)c1C , give its measured growth inhibition value.
Outgoing: 18.7

* * *

test: NCI Yeast Anticancer Drug Screen. Data for the rad50 strain (AID 155);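 note: 0% = growth of vehicle-only cultures of the same strain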; details: S. cerevisiae rad50 strain growth inhibition; at 50.0 µM; hits give high values
Compounds without any hit were thinned out: in the full panel of roughly 79,000, 15% have a hit. Active and inactive are the calls of the source. Rule as the data show it: active = growth inhibition above about 70%; inactive = the rest.
Endpoint name: growth inhibition

Incoming: For the compound Cc1c(C(=O)O)c(-c2ccc([N+](=O)[O-])cc2)c(C=O)n1-c1ccccc1 , give its measured growth inhibition value.
Outgoing: -4.9% (inactive)

Incoming: For the compound O=[N+]([O-])c1ccc(N=Nc2ccc(O)c3c(O)cc(S(=O)(=O)O)cc23)cc1S(=O)(=O)O , give its measured growth inhibition value.
Outgoing: 30.6% (inactive)

Incoming: For the compound CN(C)CCC(=O)Cc1ccccc1 , give its measured growth inhibition value.
Outgoing: -8.8% (inactive)

Incoming: For the compound O=C(O)c1ccccc1SC(Sc1ccccc1C(=O)O)c1ccccc1 , give its measured growth inhibition value.
Outgoing: -11.8% (inactive)

Incoming: For the compound CC(C)(C)/C(CC(=O)CCC(=O)Nc1ccc(Cl)cc1)=N\NC(N)=S , give its measured growth inhibition value.
Outgoing: 11.7% (inactive)

Incoming: For the compound CC1(C)COC(c2c(F)cccc2Cl)=N1 , give its measured growth inhibition value.
Outgoing: 3% (inactive)

Incoming: For the compound C[N+](C)(C)c1cc[c]([Sn]([c]2ccc([N+](C)(C)C)cc2)([c]2ccc([N+](C)(C)C)cc2)[c]2ccc([N+](C)(C)C)cc2)cc1 , give its measured growth inhibition value.
Outgoing: 16.4% (inactive)

Incoming: For the compound CCCSc1nc2c(c(=O)n(C)c(=O)n2C)n1C , give its measured growth inhibition value.
Outgoing: 7.85% (inactive)

Incoming: For the compound C/C(N)=N/OCc1ccccc1 , give its measured growth inhibition value.
Outgoing: 8.9% (inactive)

Incoming: For the compound Nc1nc(N)c(Nc2ccc(Cl)cc2)c(Cl)n1 , give its measured growth inhibition value.
Outgoing: 50% (inactive)

Incoming: For the compound N#C/C(=N/Nc1ccccc1)c1ccccc1 , give its measured growth inhibition value.
Outgoing: 6.5% (inactive)
